Quick record of pIC50 values for Influenza PB2 (Influenza A virus).
pIC50: −log10 of the molar value.

Example entries begin here.
>  <compound>
O=C(O)[C@@H]1C2CCC(CC2)[C@H]1n1cc(-c2ccc(O)cc2)c2cnc(-c3c[nH]c4ncc(F)cc34)nc21

>  <experimental.target>
Influenza PB2 (Influenza A virus)
Sequence (P03428 whole entry, looked up): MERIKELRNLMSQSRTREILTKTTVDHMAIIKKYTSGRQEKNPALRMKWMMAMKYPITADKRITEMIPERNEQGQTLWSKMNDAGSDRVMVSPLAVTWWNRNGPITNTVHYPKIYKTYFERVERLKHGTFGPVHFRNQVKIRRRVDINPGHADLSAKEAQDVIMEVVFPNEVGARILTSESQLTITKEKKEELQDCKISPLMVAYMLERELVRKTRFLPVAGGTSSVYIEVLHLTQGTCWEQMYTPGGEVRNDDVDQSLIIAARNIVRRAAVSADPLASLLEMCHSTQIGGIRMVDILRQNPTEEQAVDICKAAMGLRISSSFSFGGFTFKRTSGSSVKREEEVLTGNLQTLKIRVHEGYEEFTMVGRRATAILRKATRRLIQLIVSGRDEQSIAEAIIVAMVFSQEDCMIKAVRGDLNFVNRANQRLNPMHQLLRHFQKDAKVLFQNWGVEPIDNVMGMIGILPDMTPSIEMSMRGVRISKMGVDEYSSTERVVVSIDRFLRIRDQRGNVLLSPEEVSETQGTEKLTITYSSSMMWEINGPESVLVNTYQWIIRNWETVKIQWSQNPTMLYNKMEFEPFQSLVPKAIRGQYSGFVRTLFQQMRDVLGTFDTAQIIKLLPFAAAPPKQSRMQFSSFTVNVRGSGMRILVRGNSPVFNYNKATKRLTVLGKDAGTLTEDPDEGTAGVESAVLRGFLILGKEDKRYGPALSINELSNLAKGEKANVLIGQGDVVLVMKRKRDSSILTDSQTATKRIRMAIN

>  <pIC50>
5.00 to 6.00

$$$$
>  <compound>
CNC(=O)N1CCCC(Cn2cc(F)c3cnc(-c4c[nH]c5ncc(F)cc45)nc32)C1 (stereo not shown)

>  <experimental.target>
Influenza PB2 (Influenza A virus)

>  <pIC50>
5.00 to 6.00

$$$$
>  <compound>
COC(=O)[C@@H]1C2CCC(CC2)[C@H]1n1ccc2ccc(-c3c[nH]c4ncc(Cl)cc34)cc21

>  <experimental.target>
Influenza PB2 (Influenza A virus)

>  <pIC50>
4.00 to 5.00

$$$$
>  <compound>
CCOC(=O)c1cn([C@@H]2C3CCC(CC3)[C@H]2C(=O)O)c2nc(-c3c[nH]c4ncc(Cl)cc34)ncc12

>  <experimental.target>
Influenza PB2 (Influenza A virus)

>  <pIC50>
> 6.00

$$$$

Report pIC50 for every entry below.
1. CCOCCOCCOCC(=O)N[C@@H]1CCC[C@H](n2ccc3cnc(-c4c[nH]c5ncc(F)cc45)nc32)C1
2. CNC(=O)[C@]1(C)CCCC[C@H]1n1cc(Cl)c2cnc(-c3c[nH]c4ncc(F)cc34)nc21
3. CCOC(=O)C1=C(N2CCc3cnc(-c4c[nH]c5ncc(F)cc45)nc32)CCCC1
4. O=C(O)[C@@H]1C2CCC(CC2)[C@H]1n1cc(-c2ccncc2F)c2cnc(-c3c[nH]c4ncc(Cl)cc34)nc21 (relative stereo)
5. O=C(O)[C@@H]1CCCC[C@H]1n1ccc2cnc(-c3c[nH]c4ncc(F)cc34)nc21 (single isomer, unassigned) [Compound B17]
6. CN(C)C(=O)Cn1ccc2c(-c3c[nH]c4ncc(F)cc34)ncnc21
7. CCOCCOCCOCCNC(=O)[C@@H]1CCCC[C@H]1n1ccc2cnc(-c3c[nH]c4ncc(F)cc34)nc21

Result block:
1. 4.00 to 5.00
2. 4.00 to 5.00
3. < 4.00
4. 5.00 to 6.00
5. > 6.00
6. 4.00 to 5.00
7. 5.00 to 6.00

The following compounds each have a reported value; give each one's pIC50.
1. CCOC(=O)[C@H]1C2CCC(CC2)[C@@H]1n1ccc2cnc(-c3c[nH]c4ncc(F)cc34)nc21
2. CC(C)(C)OC(=O)N[C@@H]1C2CCC(CC2)[C@H]1n1cc(Cl)c2cnc(-c3c[nH]c4ncc(F)cc34)nc21
3. COC(=O)[C@H](CO)NC(=O)Cn1ccc2c(-c3c[nH]c4ncc(F)cc34)ncnc21
4. CC(C(=O)O)n1cc(-c2c[nH]c3ncc(F)cc23)c2cncnc21 (stereo not shown)

Result block:
4.00 to 5.00
< 4.00
< 4.00
< 4.00

State the recorded pIC50 for every item in the following list.
1. N#Cc1cnc2[nH]cc(-c3ncc4c(Cl)cn([C@@H]5C6CCC(CC6)[C@H]5C(=O)O)c4n3)c2c1
2. CNC(=O)[C@@H]1CCCC[C@H]1n1cc(F)c2cnc(-c3c[nH]c4ncc(Cl)cc34)nc21 (single isomer, unassigned) [Compound B93]
3. COC(=O)[C@H]1CCCC[C@@H]1n1ccc2cnc(-c3c[nH]c4ncc(F)cc34)nc21

Result block:
1. < 4.00
2. 5.00 to 6.00
3. 4.00 to 5.00
